Published IC50 for UniProt:P28845, assembled from different documents, is shown next.

COMPOUND	OUTPUT UNIT	QUALIFIER	IC50
CC1(C)OC(NC2CCCCC2)=NS(=O)(=O)C1c1cccc(OCc2ccccc2)c1 (stereo not shown)	µM	=	0.352
CN(C(=O)CCCOc1ccc(Cl)cc1Cl)C1CCC(C(N)=O)CC1 (stereo not shown)	µM	=	0.018
Cc1ccccc1C1C(C)(C)OC(N[C@@H](CCO)c2ccccc2)=NS1(=O)=O (stereo partly shown)	µM	=	0.011
COC(=O)c1ccc2c(c1)C1(CCN(C(=O)CCc3ccccc3C(F)(F)F)CC1)C(=O)N2C	µM	<	0.1

* * *

Published IC50 for 11-beta-hydroxysteroid dehydrogenase 1 (Homo sapiens, UniProt P28845), assembled from different documents, is shown next.
OUTCOME MEASURE: IC50 (nM)

MOLECULE	OUTCOME MEASURE	OUTPUT UNIT	QUALIFIER	DATA VALUE
CN(C(=O)CCCOc1ccc(Cl)cc1Cl)C1CCCC(C(=O)O)C1 (stereo not drawn)	IC50	nM	=	55
CNC(=O)N1Cc2ccccc2C2(CCN(C(=O)CCc3ccccc3C(F)(F)F)CC2)C1	IC50	nM	<	100
CC1(C)OC(N[C@@H](CCO)c2ccccc2)=NS(=O)(=O)C1(C)c1ccccc1 (stereo partly drawn)	IC50	nM	=	17
Cc1c(Cl)cccc1S(=O)(=O)NCC(C)(C)C(=O)NC1C2CC3CC1CC(C(N)=O)(C3)C2 (stereo not drawn)	IC50	nM	=	6.2
CN(C(=O)CCCOc1ccc(Cl)cc1Cl)C1CCC(O)CC1 (stereo not drawn)	IC50	nM	=	21
C[C@H](NC1=NS(=O)(=O)[C@@H](c2ccc(-c3ccnc(C#N)c3)cc2)C(C)(C)O1)c1ccccc1F	IC50	nM	=	11
CC1(C)OC(NC2CCCCC2)=NS(=O)(=O)C1c1cccc(Br)c1 (stereo not drawn)	IC50	nM	=	47

* * *

Published log10 IC50 for 11-beta-hydroxysteroid dehydrogenase 1 (Homo sapiens), assembled from different documents, is shown next.
OUTCOME MEASURE: log10 IC50 (log10 of the value in nM)

COMPOUND	OUTCOME MEASURE	DATA VALUE
NC(=O)C12CC3CC(C1)C(NC(=O)C1(NS(=O)(=O)c4ccc(F)c(F)c4F)CC1)C(C3)C2 (stereo not shown)	log10 IC50	2.69
NC(=O)C12CC3CC(C1)C(NC(=O)c1cccc(NS(=O)(=O)c4cc(F)ccc4F)c1)C(C3)C2 (stereo not shown)	log10 IC50	1.18
O=C(O)CC[C@]12C[C@@H]3C[C@H](C1)[C@@H](NC(=O)C1(CNS(=O)(=O)c4ccccc4F)CC1)[C@@H](C3)C2	log10 IC50	0.18
C[C@H](NC1=NS(=O)(=O)C(C)(c2cccc(-c3cncnc3)c2)C(C)(C)O1)c1ccccc1F (stereo partly shown)	log10 IC50	1.00
COC(=O)c1ccc2c(c1)N(C(=O)N[C@H]1C3CC4CC1C[C@](O)(C4)C3)CCO2	log10 IC50	0.83
Cc1ccc(-c2ccc([C@H](C3CC3)N3CC[C@](CC(C)(C)O)(c4ccccc4)OC3=O)cc2)nn1	log10 IC50	1.46
O=C(CCCOc1ccc(Cl)cc1Cl)N(C1CC1)C1C2CC3CC1CC(O)(C3)C2 (stereo not shown)	log10 IC50	1.38
NC(=O)C12CC3CC(C1)C(NC(=O)C1(NS(=O)(=O)c4cccs4)CC1)C(C3)C2 (stereo not shown)	log10 IC50	1.80
COc1ccc(-c2ccc(C3(C)C(C)(C)OC(N[C@@H](CCO)c4ccccc4F)=NS3(=O)=O)cc2)cc1 (stereo partly shown)	log10 IC50	1.00
CN(C)c1c(Cl)c(C(=O)N[C@H]2C3CC4CC2C[C@](C(N)=O)(C4)C3)nn1C	log10 IC50	1.51
CC(C)(O)C[C@@]1(c2ccccc2)CCN([C@H](c2ccc(Br)cc2)C2CC2)C(=O)O1 (racemic)	log10 IC50	2.98
O=C(CCCOc1ccccc1)NC12CC3CC(C1)CC(C(=O)O)(C3)C2	log10 IC50	2.29

* * *

Published pIC50 for 11-beta-hydroxysteroid dehydrogenase 1 (Homo sapiens, UniProt P28845), assembled from different documents, is shown next.
pIC50: −log10 of the molar value.

COMPOUND	QUALIFIER	pIC50
Cc1ccccc1-c1ccc(C2(C)C(C)(C)OC(N[C@@H](CCO)c3ccccc3F)=NS2(=O)=O)cc1 (some centres unmarked)	=	8.10
CCCC1(C)SC(N[C@@H]2C[C@H]3CC[C@@H]2C3)=NC1=O (some centres unmarked)	>	7.70
CC(C)COc1c(C(=O)N[C@H]2C3CC4CC2C[C@](OC(N)=O)(C4)C3)cnn1/C=C/C(C)(C)C#N	=	8.47
CCN(CC1(C(=O)NC2C3CC4CC2CC(C(N)=O)(C4)C3)CC1)S(=O)(=O)c1ccccc1F (centres unmarked)	=	8.85
O=C(O)CC1CC2(CCN(C(=O)CCc3ccccc3Cl)CC2)c2c(Cl)cccc21 (centres unmarked)	>	7.00
CC1(C)OC(N[C@@H](CCO)c2ccccc2F)=NS(=O)(=O)C1(C)c1ccccc1 (some centres unmarked)	=	8.30
O=C(CCCOc1ccc(Cl)cc1Cl)N1CC2CCC1C2O (centres unmarked)	=	7.85
CC(=O)Oc1ccc(C2C(C)(C)OC(N[C@@H](CCO)c3ccccc3F)=NS2(=O)=O)cc1 (some centres unmarked)	=	7.77
CC1(C)OC(N[C@@H](CCO)c2ccccc2F)=NS(=O)(=O)C1(C)c1ccc(-c2ccc(F)cc2)cc1 (some centres unmarked)	=	8.15
CC1(C)OC(N[C@@H](CCO)c2ccccc2F)=NS(=O)(=O)C1c1ccc(-c2ccc(C(N)=O)cc2)cc1 (some centres unmarked)	=	8.22
N#Cc1ccc2c(c1)CCCN2C(=O)N[C@H]1C2CC3CC1C[C@](O)(C3)C2	=	8.55
C[C@H](NC1=NC(=O)C(C)(c2ccncc2)S1)c1ccccc1F (some centres unmarked)	>	7.70
CC1(C)OC(N[C@@H](CCO)c2cc(Cl)ccc2F)=NS(=O)(=O)C1c1ccc(-c2ccccc2)cc1 (some centres unmarked)	=	7.60
CC(C)Oc1ccccc1CNC(=O)N1CCC2(CC1)CC(CC(=O)O)c1cccc(Br)c12 (centres unmarked)	>	7.00
C[C@H](NC1=NS(=O)(=O)[C@H](c2ccc(-c3cccc(C(N)=O)c3)cc2)C(C)(C)O1)c1ccccc1F	=	7.70
CN(CC1(C(=O)NC23CC4CC(CC(C4)C2)C3)CC1)S(=O)(=O)c1ccccc1F	=	8.92
CC(O)c1ccc(S(=O)(=O)N2CC3(C)CC2CC(C)(C)C3)cc1 (centres unmarked)	=	7.80
CC1(C)OC(N[C@@H](CCO)c2ccccc2F)=NS(=O)(=O)C1c1ccc(-c2ccccc2C#N)cc1 (some centres unmarked)	=	8.15
C[C@H](NC1=NS(=O)(=O)[C@H](c2ccc(-c3cncc(C(N)=O)c3)cc2)C(C)(C)O1)c1ccccc1F	=	8.52
CC1(C)CCN(C(=O)N[C@H]2C3CC4CC2C[C@](O)(C4)C3)c2ccccc21	=	8.70
CC1(C)OC(N[C@@H](CCO)c2ccccc2F)=NS(=O)(=O)C1c1ccc(CN2CCOCC2)cc1 (some centres unmarked)	=	7.74
CC1(C)OC(N[C@@H](CCO)c2ccccc2F)=NS(=O)(=O)C1c1ccc(CCCN)cc1 (some centres unmarked)	=	7.59
O=C(O)CC1CC2(CCN(C(=O)NCc3ccccc3C(F)(F)F)CC2)c2c(Br)cccc21 (centres unmarked)	>	7.00
C[C@H](NC1=NS(=O)(=O)C(c2cccc(C(=O)N3CCCN(C)CC3)c2)C(C)(C)O1)c1ccccc1F (some centres unmarked)	=	6.32
O=C(c1cc2ncc(Br)cn2n1)N1CCc2ccsc2CC1	<	5.00
CN1CCN(c2ccc(C3C(C)(C)OC(N[C@@H](CCO)c4ccccc4F)=NS3(=O)=O)cc2)CC1 (some centres unmarked)	=	7.10
O=C(CCCOc1ccc(Cl)cc1Cl)NC1CCC(CO)CC1 (centres unmarked)	=	7.57
CC1(C)OC(NC2CCCCC2)=NS(=O)(=O)C1c1cccc(O)c1 (centres unmarked)	=	6.79
O=C(CCc1ccccc1C(F)(F)F)N1CCC2(CC1)C(=O)Nc1ccccc12	>	7.00
O=C(CCCOc1ccc(Cl)cc1Cl)NC12CCC(CO)(CC1)CC2	=	9.00
CC(C)(CNS(=O)(=O)c1ccccc1)C(=O)NC1C2CC3CC1CC(C(N)=O)(C3)C2 (centres unmarked)	=	7.54
O=C(O)CC1CC2(CCN(C(=O)Cc3ccccc3OC(F)(F)F)CC2)c2c(Cl)cccc21 (centres unmarked)	>	7.00

* * *

pIC50: −log10 of the molar value.
Published pIC50 for 11-beta-hydroxysteroid dehydrogenase 1 (Homo sapiens, UniProt P28845), assembled from different documents, is shown next.

COMPOUND	QUALIFIER	pIC50
O=C(N[C@H]1C2CC3CC1C[C@](O)(C3)C2)N1CCCCc2ccccc21	=	8.92
C[C@H](NC1=NS(=O)(=O)[C@@H](c2ccc(-c3cccc(C(N)=O)c3)cc2)C(C)(C)O1)c1ccccc1F	=	7.74
CC1(C)OC(N[C@@H](CCO)c2ccccc2F)=NS(=O)(=O)C1(C)c1cccc(N2CCN(S(C)(=O)=O)CC2)c1 (some centres unmarked)	=	7.89
COc1ccccc1-c1ccc(C2C(C)(C)OC(N[C@@H](CCO)c3ccccc3F)=NS2(=O)=O)cc1 (some centres unmarked)	=	7.85
CC1(C)CC2CC(C)(CN2S(=O)(=O)c2ccc(-c3csnn3)cc2)C1 (centres unmarked)	=	6.95
C[C@H](N1CC[C@](CCCNS(C)(=O)=O)(c2ccc(F)cc2)OC1=O)C(C)(C)C	>	7.00
CN(C)c1cccc(-c2ccc(C3C(C)(C)OC(N[C@@H](CCO)c4ccccc4F)=NS3(=O)=O)cc2)n1 (some centres unmarked)	=	7.72
